- Target desc: human oxytocin receptor (Homo sapiens)
- Construct: host or cells: CHO cells, stably transfected (pcDNA3.1 vector)
- Sequence (P30559 whole entry): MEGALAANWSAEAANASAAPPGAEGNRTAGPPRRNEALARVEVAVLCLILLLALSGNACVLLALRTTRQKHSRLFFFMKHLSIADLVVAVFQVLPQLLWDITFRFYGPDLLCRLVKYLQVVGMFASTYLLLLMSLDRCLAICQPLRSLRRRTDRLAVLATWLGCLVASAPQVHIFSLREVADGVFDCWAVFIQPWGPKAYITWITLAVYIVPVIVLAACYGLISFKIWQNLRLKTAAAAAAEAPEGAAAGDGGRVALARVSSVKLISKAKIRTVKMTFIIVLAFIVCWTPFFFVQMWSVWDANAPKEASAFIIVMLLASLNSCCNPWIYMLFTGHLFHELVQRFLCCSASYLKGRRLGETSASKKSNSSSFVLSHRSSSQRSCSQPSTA
- Test protocol: Oxytocin binding in CHO cell membranes expressing human oxytocin receptors ([3H]oxytocin radioligand binding)
- Condition set: 100 nM
Assign classes using reported OT % inhibition @ 100 nM values and the ranges range 1 = under 70%, range 2 = from 70% up to 90%, range 3 = 90% and over, please.

Cc1cc(C(=O)N2Cc3ccc(C(=O)N(C)CCN(C)C)n3Cc3ccccc32)ccc1C1=CCCCC1	range 3

Q: Exam item: assign Cc1cc(C(=O)N2Cc3ccc(C(=O)N(C)CCCN(C)C)n3Cc3ccccc32)ccc1C1=CCCCC1 to the correct category.
Ans: range 3

Q: Exam item: assign Cc1cc(C(=O)N2Cc3ccc(C(=O)N4CC[C@@H](N(C)C)C4)n3Cc3ccccc32)ccc1C1=CCCCC1 to the correct category.
Ans: range 3

Q: Exam item: assign Cc1cc(C(=O)N2Cc3ccc(C(=O)NCCCn4ccnc4)n3Cc3ccccc32)ccc1C1=CCCCC1 to the correct category.
Ans: range 1

Q: Exam item: assign Cc1cc(C(=O)N2Cc3ccc(C(=O)NCCC4CCCN4C)n3Cc3ccccc32)ccc1C1=CCCCC1 (stereo not drawn) to the correct category.
Ans: range 1

Q: Exam item: assign Cc1cc(C(=O)N2Cc3ccc(C(=O)N4CCC(N5CCCC5)CC4)n3Cc3ccccc32)ccc1C1=CCCCC1 to the correct category.
Ans: range 2

Q: Exam item: assign Cc1cc(C(=O)N2Cc3ccc(C(=O)N4CCC(N5CCCCC5)CC4)n3Cc3ccccc32)ccc1C1=CCCCC1 to the correct category.
Ans: range 2
